- Tgt: UniProtKB P07339
- Test Method Notes: In vitro enzymatic Cathepsin D (Cat D) FRET assay
- Assay type: biochemical
- Stated Conditions: read-out: CatD IC50
pIC50: −log10 of the molar value.
Endpoint: pIC50

Guide cases for pIC50, answers given:
1. NC1=N[C@@](c2cc(NC(=O)c3nn(C(F)F)cc3Cl)cc(F)c2F)(C(F)F)[C@H]2C[C@H]2O1 (stereo in doubt) [Example 110]    2.83
2. NC1=N[C@@](c2cc(NC(=O)c3csc(C(F)F)n3)ccc2F)(C(F)F)[C@H]2C[C@H]2O1 [Example 149]    2.77
3. COc1cnc(C(=O)Nc2ccc(F)c([C@@]3(C(F)F)N=C(N)O[C@@H]4C[C@@H]43)c2)c(F)c1 [Example 306]    2.98
4. CC(C)c1cc(Cl)cnc1C(=O)Nc1ccc(F)c([C@@]2(C(F)F)N=C(N)O[C@@H]3C[C@@H]32)c1 [Example 289]    3.15

I: COc1c(F)cc(NC(=O)c2ccc(Cl)cn2)cc1[C@@]1(CF)N=C(N)O[C@@H]2C[C@@H]21 (racemic) [Example 31]
II: N#Cc1ccc(C(=O)Nc2ccc(Cl)c([C@]3(CF)N=C(N)O[C@H]4C[C@H]43)c2)nc1 [Example 278]
Q) Higher pIC50: I or II ? Please respond with the label that marks your chosen entry.
A) I
(I: 3.47, II: 3.04)

* * *

- Tgt: Cathepsin D (Cat D) (Homo sapiens (Human))
- Sequence (P07339 65-412, species assumed): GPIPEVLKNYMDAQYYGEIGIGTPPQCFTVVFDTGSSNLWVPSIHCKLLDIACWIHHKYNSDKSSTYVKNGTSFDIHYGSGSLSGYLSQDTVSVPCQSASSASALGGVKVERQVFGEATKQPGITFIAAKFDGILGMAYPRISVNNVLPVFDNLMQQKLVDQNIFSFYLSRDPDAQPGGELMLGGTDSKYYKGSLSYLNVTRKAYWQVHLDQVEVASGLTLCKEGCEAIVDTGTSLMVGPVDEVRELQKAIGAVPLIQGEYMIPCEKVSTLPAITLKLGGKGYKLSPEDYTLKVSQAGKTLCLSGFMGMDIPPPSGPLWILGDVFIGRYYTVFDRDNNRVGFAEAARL
- Test Method Notes: In vitro enzymatic Cathepsin D (Cat D) FRET assay
- Type: biochemical
- Stated Conditions: read-out: CatD IC50
pIC50: −log10 of the molar value.
Endpoint: pIC50

Guide cases for pIC50, answers given:
1) COc1cnc(C(=O)Nc2ccc(Cl)c([C@@]3(C(F)F)N=C(N)O[C@@H]4C[C@@H]43)c2)cn1    3.44
2) NC1=N[C@@](c2cc(NCc3ccc(Cl)cn3)ccc2F)(C(F)F)[C@H]2C[C@H]2O1    3.75

a: C[C@H](C(=O)Nc1ccc(F)c([C@@]2(C(F)F)N=C(N)O[C@@H]3C[C@@H]32)c1)c1ccc(Cl)cc1 (mixture of isomers)
b: NC1=N[C@@](CF)(c2cc(NC(=O)c3ccc(Cl)cn3)ccc2F)[C@@H]2C[C@@H]2O1
Q) Decide: a or b , by lowest recorded pIC50. Please respond with the label that marks your chosen entry.
A) b
(b: 2.89, a: 3.57)

A: N#Cc1ccc(C(=O)Nc2cnc(F)c([C@]3(C(F)F)N=C(N)O[C@H]4C[C@H]43)c2)nc1 (racemic)
B: CCOc1cnc(C(=O)Nc2ccc(F)c([C@@]3(C(F)F)N=C(N)O[C@@H]4C[C@@H]43)c2)cn1
Q) Decide: A or B , by lowest recorded pIC50. Please respond with the label that marks your chosen entry.
A) B

* * *

- Tgt: Beta Secretase enzyme (BACE) (Homo sapiens (Human), UniProt P56817)
- Sequence (P56817 46-501): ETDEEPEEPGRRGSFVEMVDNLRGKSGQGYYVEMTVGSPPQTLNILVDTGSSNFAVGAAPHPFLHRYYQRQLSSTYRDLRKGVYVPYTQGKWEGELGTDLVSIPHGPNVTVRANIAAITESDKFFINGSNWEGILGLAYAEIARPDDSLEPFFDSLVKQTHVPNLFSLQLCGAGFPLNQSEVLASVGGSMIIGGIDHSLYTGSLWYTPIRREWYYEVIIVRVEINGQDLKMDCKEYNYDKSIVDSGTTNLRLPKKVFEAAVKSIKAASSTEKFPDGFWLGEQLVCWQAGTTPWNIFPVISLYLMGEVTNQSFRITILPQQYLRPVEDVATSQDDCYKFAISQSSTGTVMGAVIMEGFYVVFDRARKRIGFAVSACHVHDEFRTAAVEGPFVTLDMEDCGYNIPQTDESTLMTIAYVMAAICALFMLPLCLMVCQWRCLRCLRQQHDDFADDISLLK
- Test Method Notes: In vitro enzymatic BACE FRET assay
- Format: biochemical
Endpoint: IC50 (nM)
Numeric answer only, unit nM assumed.

Q) Give the reported value of IC50 for this record: NC1=N[C@@](c2cc(Nc3coc4cc(Cl)cnc34)ccc2F)(C(F)F)[C@H]2C[C@H]2O1
A) 253

* * *

- Tgt: Cathepsin D (Cat D) (Homo sapiens (Human))
- Test Method Notes: In vitro enzymatic Cathepsin D (Cat D) FRET assay
- Type: biochemical
- Stated Conditions: read-out: CatD IC50
Endpoint: IC50 (µM)

1) COc1ccc(C(=O)Nc2cc(F)c(F)c([C@@]3(CF)N=C(N)O[C@@H]4C[C@@H]43)c2)nc1 [Example 41]    238
2) COc1cnc2c(Nc3ccc(F)c([C@@]4(C(F)F)N=C(N)O[C@@H]5C[C@@H]54)c3)nccc2c1 [Example 348]    738

A: Cc1cc(OC(F)F)cnc1C(=O)Nc1ccc(Cl)c([C@@]2(C(F)F)N=C(N)O[C@@H]3C[C@@H]32)c1 [Example 212]
B: NC1=N[C@@](c2cc(NC(=O)c3ccc(Br)cn3)ccc2F)(C(F)F)[C@H]2C[C@H]2O1 [Example 74]
C: NC1=N[C@@](c2cc(NC3(c4ccc(Cl)cn4)COC3)ccc2F)(C(F)F)[C@H]2C[C@H]2O1 [Example 332]
D: NC1=N[C@](CF)(c2cc(NC(=O)c3ccc(Br)cn3)cc(F)c2F)[C@H]2C[C@H]2O1 [Example 39]
Q) Order each entry by recorded IC50, climbing from the minimum. Returns: the labels listed in the requested order.
A) D, C, B, A
